Target: E. coli DnaK aa588-615 (E. coli)
endpoint: pKd
Remember the convention: pKd equals -log10 of concentration in molar.

Prompt line: I am curious: what pKd value has been reported for KVDKGSYLPRPTPPRPIYNRN (modifications not checked) [fluorescein-K-pyrrhocoricin] ?
Response line: 4.03
